Conditions: 100 ml bile extracted, analytical gradient HPLC with CsA internal standard
Quantity Kind: Amount of cyclosporine per liter of bile as determined with internal standard (µg/L)
Express your answer in µg/L, writing the number without its unit.

## Task Recorded Amount of cyclosporine per liter of bile as determined with internal standard of CC[C@@H]1NC(=O)[C@H]([C@H](O)[C@H](C)C/C=C/CO)N(C)C(=O)[C@H](C(C)C)N(C)C(=O)[C@H](CC(C)C)N(C)C(=O)[C@H](CC(C)C)N(C)C(=O)[C@@H](C)NC(=O)[C@H](C)NC(=O)[C@H](CC(C)C)N(C)C(=O)[C@H](C(C)C)NC(=O)[C@H](CC(C)C)N(C)C(=O)CN(C)C1=O [OL-17, 1-hydroxy cyclosporine A] , please.
## Result 853
